Reported values of IC50 for individual entries
- Subject of test: NaV1.7 (Homo sapiens, UniProt Q15858)
- Construct: expressed in transfected cells; host or cells: HEK293, tetracycline-inducible
- Sequence (Q15858 whole entry): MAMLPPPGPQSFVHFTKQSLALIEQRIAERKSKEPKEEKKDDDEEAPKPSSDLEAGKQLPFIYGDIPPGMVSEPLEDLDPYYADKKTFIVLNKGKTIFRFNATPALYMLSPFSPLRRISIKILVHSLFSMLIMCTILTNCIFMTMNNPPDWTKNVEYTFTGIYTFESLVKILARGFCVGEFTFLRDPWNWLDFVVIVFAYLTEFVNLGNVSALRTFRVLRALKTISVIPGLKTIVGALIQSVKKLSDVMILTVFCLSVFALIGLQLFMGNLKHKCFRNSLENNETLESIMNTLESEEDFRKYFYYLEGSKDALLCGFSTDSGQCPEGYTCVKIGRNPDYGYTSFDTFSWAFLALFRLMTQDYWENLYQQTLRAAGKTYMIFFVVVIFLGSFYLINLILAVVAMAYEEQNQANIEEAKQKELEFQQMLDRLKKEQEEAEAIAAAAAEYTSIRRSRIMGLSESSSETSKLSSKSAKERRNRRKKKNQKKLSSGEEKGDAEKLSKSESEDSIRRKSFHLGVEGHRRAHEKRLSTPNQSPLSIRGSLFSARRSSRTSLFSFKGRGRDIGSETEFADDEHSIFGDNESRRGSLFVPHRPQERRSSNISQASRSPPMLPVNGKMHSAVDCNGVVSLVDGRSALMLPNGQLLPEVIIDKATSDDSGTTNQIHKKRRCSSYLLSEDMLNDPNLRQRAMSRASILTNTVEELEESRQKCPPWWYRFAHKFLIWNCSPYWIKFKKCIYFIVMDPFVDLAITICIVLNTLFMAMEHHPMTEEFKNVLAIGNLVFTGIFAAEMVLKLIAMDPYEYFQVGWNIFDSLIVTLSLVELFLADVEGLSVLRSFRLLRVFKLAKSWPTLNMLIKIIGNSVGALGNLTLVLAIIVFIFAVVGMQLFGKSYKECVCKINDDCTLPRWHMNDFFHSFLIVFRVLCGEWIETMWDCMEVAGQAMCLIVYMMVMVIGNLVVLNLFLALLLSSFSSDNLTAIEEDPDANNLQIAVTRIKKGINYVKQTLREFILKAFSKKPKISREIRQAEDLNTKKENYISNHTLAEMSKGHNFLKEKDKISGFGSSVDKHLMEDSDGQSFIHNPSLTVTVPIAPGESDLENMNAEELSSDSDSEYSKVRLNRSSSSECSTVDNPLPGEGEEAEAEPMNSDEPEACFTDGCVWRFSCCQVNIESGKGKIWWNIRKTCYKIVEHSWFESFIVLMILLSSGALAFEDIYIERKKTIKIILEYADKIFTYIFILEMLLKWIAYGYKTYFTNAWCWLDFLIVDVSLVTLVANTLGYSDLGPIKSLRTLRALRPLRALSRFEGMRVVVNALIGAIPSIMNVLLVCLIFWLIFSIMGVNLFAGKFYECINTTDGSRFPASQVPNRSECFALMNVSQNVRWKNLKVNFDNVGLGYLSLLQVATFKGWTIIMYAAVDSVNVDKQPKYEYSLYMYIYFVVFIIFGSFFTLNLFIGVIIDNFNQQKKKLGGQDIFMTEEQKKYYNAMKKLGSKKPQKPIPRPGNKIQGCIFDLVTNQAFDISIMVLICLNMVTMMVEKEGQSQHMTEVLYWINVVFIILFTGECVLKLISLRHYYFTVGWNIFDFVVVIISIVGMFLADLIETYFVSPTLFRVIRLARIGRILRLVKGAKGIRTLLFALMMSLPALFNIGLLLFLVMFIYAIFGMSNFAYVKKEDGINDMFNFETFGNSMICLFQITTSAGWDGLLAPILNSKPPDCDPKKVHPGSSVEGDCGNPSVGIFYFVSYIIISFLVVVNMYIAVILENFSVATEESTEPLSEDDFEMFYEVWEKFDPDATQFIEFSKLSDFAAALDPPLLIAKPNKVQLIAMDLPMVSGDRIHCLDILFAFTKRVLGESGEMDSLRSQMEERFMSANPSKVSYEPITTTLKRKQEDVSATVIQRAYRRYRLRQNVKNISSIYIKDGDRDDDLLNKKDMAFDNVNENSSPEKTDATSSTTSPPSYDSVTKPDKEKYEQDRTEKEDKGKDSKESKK
- Test description: Automated patch clamp (Qube 384), external block of NaV1.7 in HEK293 cells
- Type: cell-based
- Test conditions: compound in external solution, read-out: NaV1.7 Extracellular Inhibition

Worked cases, IC50 given:
COC(=O)c1cccc(C)c1NC(=O)C[N+]1(Cc2ccccc2)CCCCCC1 | 1 to 10 µM
CC[N+]1(CC(=O)Nc2c(C)cccc2C(=O)OC)CCCC(C(=O)OCC(C)C)C1.[I-] (centres unmarked) | > 30 µM
COC(=O)c1cccc(C)c1NC(=O)C[N+]1(Cc2ccccc2)CCCC(C(=O)NCC(C)C)C1.[Br-] (centres unmarked) | 10 to 30 µM
Cc1cccc(C(=O)OC(C)(C)C)c1NC(=O)C[n+]1cccc(-c2ccccc2)c1.[Br-] | 1 to 10 µM
Cc1cccc(C(=O)OC(C)(C)C)c1NC(=O)C[n+]1cccn1C1CCCCC1.[Br-] | 1 to 10 µM
CCOC(=O)C1CCC[N+](CC(=O)Nc2c(C)cccc2C(=O)OC)(Cc2ccccc2)C1 (mixture of isomers) | 1 to 10 µM
CCCNC(=O)C1CCC[N+](CC(=O)Nc2c(C)cccc2C(=O)OC)(Cc2ccccc2)C1 (mixture of isomers) | 10 to 30 µM

--- query ---
Task item: Would you kindly share the measured IC50 for CCC(C(=O)Nc1c(C)cccc1C(=O)OC)[N+]1(Cc2ccccc2)CCCCC1 (centres unmarked) ?
Reply: > 30 µM

====

- Test description: PAMPA membrane permeability assay
- Type: physicochemical
- Test conditions: pH 7.4 buffer, GIT lipid, 4 hours incubation
Attribute measured: PAMPA (10^−6 cm/s)

CCNC(=O)C1CCC[N+](CC(=O)Nc2c(C)cccc2C(=O)OC)(Cc2ccccc2)C1.O=C([O-])C(F)(F)F (centres unmarked) | ++ (0.1-2.0 10^−6 cm/s)
CC[N+]1(CC(=O)Nc2c(C)cccc2C(=O)OC)CCCC(C(=O)NC(C)C)C1.[I-] (centres unmarked) | + (<0.1 10^−6 cm/s)
CC[N+]1(CC(=O)Nc2c(C)cccc2C(=O)OC)CCCC(C(N)=O)C1.[I-] (centres unmarked) | + (<0.1 10^−6 cm/s)
COC(=O)c1cccc(C)c1NC(=O)C[n+]1cccn1C1CCCCC1.[Br-] | ++ (0.1-2.0 10^−6 cm/s)
CCCN(CCC)C(=O)C1CCC[N+](CC(=O)Nc2c(C)cccc2C(=O)OC)(Cc2ccccc2)C1.[Br-] (centres unmarked) | + (<0.1 10^−6 cm/s)
CCC(C(=O)Nc1c(C)cccc1C(=O)OC)[N+]1(Cc2ccccc2)CCCCC1 (centres unmarked) | + (<0.1 10^−6 cm/s)
CNC(=O)C[N+]1(CC(=O)Nc2c(C)cccc2C(=O)OC)CCCC(c2ccccc2)C1.[Br-] (mixture of isomers) | + (<0.1 10^−6 cm/s)
COC(=O)c1cccc(C)c1NC(=O)C[N+]1(Cc2ccccc2)CCCC(C(=O)NC(C)C)C1.[Br-] (centres unmarked) | + (<0.1 10^−6 cm/s)

Task item: Report PAMPA (10^−6 cm/s) for `CCOC(=O)c1cccc(C)c1NC(=O)C[N+]1(Cc2ccccc2)CCCC1.[Br-]` please.
Reply: + (<0.1 10^−6 cm/s)

Task item: Queued: COC(=O)c1cccc(C)c1NC(=O)C[N+]1(Cc2ccccc2)CCCC(C(=O)OC2CCCC2)C1.[Br-] (centres unmarked)
Reply: + (<0.1 10^−6 cm/s)

Task item: `Cc1cccc(C(=O)OC(C)C)c1NC(=O)C[N+]1(Cc2ccccc2)CCCCCC1.[Br-]` ?
Reply: + (<0.1 10^−6 cm/s)
